# Tested on: Pons
# protocol details: Drug uptake in anesthetized cynomolgus monkey brain pons after 55 mins postinjection
# Assay type: ADME, organism-based, Macaca fascicularis
# test settings: in vivo
quantity measured: Drug uptake

# Drug uptake lookup, item O=C(OCC[18F])C1C2CCC(CC1c1cccc(/C=C\I)c1)N2 (stereo not given)
3.27

# Drug uptake lookup, item O=C(OCCC[18F])C1C2CCC(CC1c1cccc(/C=C\Br)c1)N2 (stereo not given)
4.72

# Drug uptake lookup, item O=C(OCCC[18F])C1C2CCC(CC1c1cccc(/C=C\I)c1)N2 (stereo not given)
4.4

# Drug uptake lookup, item O=C(OCC[18F])C1C2CCC(CC1c1ccc(/C=C\I)cc1)N2 (stereo not given)
2.99

# Drug uptake lookup, item O=C(OCC[18F])C1C2CCC(CC1c1cccc(/C=C\Br)c1)N2 (stereo not given)
4.36

---

Can you tell me Ratio for the items I'm about to list?
# protocol details: Ratio of drug uptake in occipital lobe to cerebellum in anesthetized cynomolgus monkey after 235 mins postinjection
# Assay type: ADME, organism-based, Macaca fascicularis
# test settings: in vivo
Answer using only a numeral; do not append any unit.

# Ratio lookup, item O=C(OCCC[18F])C1C2CCC(CC1c1cccc(/C=C\Br)c1)N2 (stereo not given)
1.4

# Ratio lookup, item O=C(OCC[18F])C1C2CCC(CC1c1cccc(/C=C\I)c1)N2 (stereo not given)
0.9

# Ratio lookup, item O=C(OCC[18F])C1C2CCC(CC1c1ccc(/C=C\I)cc1)N2 (stereo not given)
1.6

# Ratio lookup, item O=C(OCCC[18F])C1C2CCC(CC1c1cccc(/C=C\I)c1)N2 (stereo not given)
1

# Ratio lookup, item O=C(OCC[18F])C1C2CCC(CC1c1cccc(/C=C\Br)c1)N2 (stereo not given)
1.2

---

# protocol details: Ratio of drug uptake in putamen to cerebellum in anesthetized cynomolgus monkey after 165 mins postinjection
# Format: ADME, organism-based, Macaca fascicularis
# test settings: in vivo, 2.75 h
quantity measured: Ratio

# Ratio lookup, item O=C(OCC[18F])C1C2CCC(CC1c1cccc(/C=C\I)c1)N2 (centres undefined)
1.8

# Ratio lookup, item O=C(OCC[18F])C1C2CCC(CC1c1cccc(/C=C\Br)c1)N2 (centres undefined)
1.8

# Ratio lookup, item O=C(OCCC[18F])C1C2CCC(CC1c1cccc(/C=C\I)c1)N2 (centres undefined)
1.6

# Ratio lookup, item O=C(OCCC[18F])C1C2CCC(CC1c1cccc(/C=C\Br)c1)N2 (centres undefined)
1.7

---

# Tested on: Medulla
# protocol details: Drug uptake in anesthetized cynomolgus monkey brain medulla after 15.5 mins postinjection
# Format: ADME, organism-based, Macaca fascicularis
# test settings: in vivo
Can you tell me Drug uptake for the items I'm about to list?
Answer using only a numeral; do not append any unit.

# Drug uptake lookup, item O=C(OCCC[18F])C1C2CCC(CC1c1cccc(/C=C\Br)c1)N2 (stereo not given)
5.77

# Drug uptake lookup, item O=C(OCC[18F])C1C2CCC(CC1c1ccc(/C=C\I)cc1)N2 (stereo not given)
2.67

# Drug uptake lookup, item O=C(OCC[18F])C1C2CCC(CC1c1cccc(/C=C\I)c1)N2 (stereo not given)
3.53

# Drug uptake lookup, item O=C(OCCC[18F])C1C2CCC(CC1c1cccc(/C=C\I)c1)N2 (stereo not given)
4.36

# Drug uptake lookup, item O=C(OCC[18F])C1C2CCC(CC1c1cccc(/C=C\Br)c1)N2 (stereo not given)
4.15
